system: NS5A chimeric genotype 1b Con1 replicon with genotype 3a S52 strain NS5A gene; assay: Replicon assay, genotype 3a NS5A chimera; type: cell-based, HCV; conditions: Hepatitis C virus, read-out: 3a (s), (s); activity range
pEC50: −log10 of the molar value.
Here the recorded pEC50 is given for each entry.

Consider the worked cases shown below.
Qu. Please look up its pEC50: COC(=O)N[C@H](C(=O)N1[C@@H](C)CC[C@H]1c1ncc(-c2ccc3c(c2)COc2cc4c(ccc5nc([C@@H]6CC[C@H](C)N6C(=O)[C@@H](NC(=O)OC)[C@H](C)OC)[nH]c54)cc2-3)[nH]1)C(C)C
Ans. 9.00 to 10.00

Qu. May I ask what pEC50 has been recorded for CC[C@H]1CC[C@@H](c2ncc(-c3ccc4c(c3)COc3cc5c(ccc6nc([C@@H]7CC[C@H](C)N7C(=O)[C@@H](NC(=O)OC)[C@@H](C)OC)[nH]c65)cc3-4)[nH]2)N1C(=O)[C@@H](NC(=O)OC)[C@@H](C)OC ?
Ans. > 10.00

Qu. Fill in: pEC50 of CC[C@H]1C[C@@H](c2nc3ccc4cc5c(cc4c3[nH]2)OCc2cc(-c3cnc([C@@H]4CC[C@H](C)N4C(=O)[C@@H](NC(=O)OC)C(C)C)[nH]3)ccc2-5)N(C(=O)[C@H](C)NC(=O)OC)C1 is ___
Ans. 9.00 to 10.00

Qu. Given the compound COC(=O)N[C@@H](C)C(=O)N1[C@@H](C)CC[C@H]1c1nc2ccc3cc4c(cc3c2[nH]1)OCc1cc(-c2cnc([C@@H]3CC[C@H](C)N3C(=O)[C@@H](NC(=O)OC)C(C)C)[nH]2)ccc1-4 , what is its reported pEC50?
Ans. 9.00 to 10.00

Continuing:
Qu. // returns reported pEC50 for input COC(=O)N[C@H](C(=O)N1[C@@H](C)CC[C@H]1c1nc2ccc3cc4c(cc3c2[nH]1)OCc1cc(-c2cnc([C@@H]3C[C@@H]5CCC[C@@H]5N3C(=O)[C@@H](NC(=O)OC)C3CCOCC3)[nH]2)ccc1-4)C(C)C
Ans. > 10.00

Qu. Please look up its pEC50: CC[C@H]1C[C@@H](c2nc3ccc4cc5c(cc4c3[nH]2)OCc2cc(-c3cnc([C@@H]4CC[C@H](C)N4C(=O)[C@@H](NC(=O)OC)C(C)C)[nH]3)ccc2-5)N(C(=O)[C@@H](NC(=O)OC)[C@@H](C)OC)C1
Ans. 9.00 to 10.00
